Sourced from PubChem BioAssay (NCI)

- assay_procedure: NCI Yeast Anticancer Drug Screen. Data for the bub3 strain (AID 167)
- experimental_conditions: S. cerevisiae bub3 mutant strain, at 50.0 µM, active compounds read high
About 79,000 compounds went through this panel and 15% of them were active in at least one assay; those are over-represented in the sample as a whole.
measured_attribute: growth inhibition (%)
Numbers only, in %.

[[record]]
molecule = "O=S(=O)(O)CC(NCc1ccccc1)c1ccccc1 (centres undefined)"
measured = 13.8

[[record]]
molecule = "CCOC(=O)C(=O)Nc1ccc2cc(OC)ccc2c1C#N"
measured = 19.4

[[record]]
molecule = "CC(=O)NCCNC(=O)c1ccc(C)c(OCc2ccccc2)c1[N+](=O)[O-]"
measured = -1.6

[[record]]
molecule = "CN=NNc1ccc(C#N)cc1"
measured = -6.65

[[record]]
molecule = "CCCCSCCO"
measured = -4.4

[[record]]
molecule = "O=C(NC12OC3CC(CC(C3)O1)O2)NC12OC3CC(CC(C3)O1)O2"
measured = -30.3


Batch request: growth inhibition per item, same order as input.
1. CC(CC(C)(C)C)C(=O)NC(N)=O (centres undefined)
2. N#CC(NCc1cccc(CNC(C#N)c2ccccc2)c1)c1ccccc1 (centres undefined)
3. O=C(NCCCCNCCCNC(=O)c1ccc([N+](=O)[O-])cc1)c1ccc([N+](=O)[O-])cc1
4. CCOC(COc1ccc2ccccc2c1)OCC
5. CCCCNS(=O)(=O)CCCC
6. CC(=O)NC1C(OC(C)=O)OC(COC(c2ccccc2)(c2ccccc2)c2ccccc2)C(O)C1OC(C)=O (centres undefined)

Result string:
8.65
-28.7
4.4
6.9
6.15
47.2

Go through the items and report each one's growth inhibition.
1. CCCCCCCC/C=C\CCCCCCCC(=O)OC(C)CC(=O)N(C)C (centres undefined)
2. CSC1(C)C(=O)Nc2cccc([N+](=O)[O-])c21 (centres undefined)
3. Cc1ccc(N=Nc2ccc(C)cc2NC(=O)c2ccc(Cl)cc2Cl)cc1
4. N#Cc1c2nc3ccccc3nc2n2ccccc12

Result string:
1: -11.6; 2: 11.8; 3: -1.55; 4: 1.15

Each of the following entries comes with a recorded value; kindly state growth inhibition for each.
1. O=[N+]([O-])c1ccc(C2ON2C2CCCCC2)cc1 (centres undefined)
2. N#Cc1c2c([nH]c(=O)c1C#N)CCCC2
3. C/C=C\C(=O)OCC(C)COC(=O)/C=C/C (centres undefined)

Result string:
-10.8
-8.75
2.65

Look up growth inhibition for the entries below, preserving their order.
1. CCOC(=O)C(C(=O)OCC)n1c(=O)c2c(ncn2C)n(C)c1=O
2. CCCC/C(=N/O)c1ccccc1
3. O=S(=O)([N-]c1nc2ccccc2nc1-[n+]1ccccc1)c1ccccc1
4. Cc1ccc(S(=O)(=O)ON2C(=O)c3cccc4cc([N+](=O)[O-])cc(c34)C2=O)cc1
5. FC(F)(F)c1nn2c(c(-c3ccccc3)c(-c3ccccc3)c3ccccc32)c1C(F)(F)F

Result string:
13
-21.6
-2.2
-12.2
-4.4
